target-entity: human galectin-1 (Gal-1, full length) (Homo sapiens, UniProt P09382)
Construct: Gal-1 is a prototype galectin consisting of a single CRD and was used in full length; 6xHis tag with TEV protease site (N, cleaved yes); made in house; host or cells: BL21 Escherichia coli (pET-15b)
Sequence (P09382 2-135): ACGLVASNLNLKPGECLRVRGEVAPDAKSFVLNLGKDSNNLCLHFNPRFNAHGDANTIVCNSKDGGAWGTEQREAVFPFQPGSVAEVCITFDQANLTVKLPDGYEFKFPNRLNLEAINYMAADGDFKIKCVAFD
assay-remarks: Competitive fluorescence polarization assay, Gal-1
Format: binding
experimental-setup: four-parameter logistic model; mean ± SD; read-out: IC50 Gal-1
pIC50: −log10 of the molar value.
Entries and their measured pIC50 follow.
result-type: pIC50

>>> test_result("CNC(=O)c1cccc(N(C(C)=O)[C@@H]2O[C@H](CO)[C@@H](O[C@@H]3O[C@H](CO)[C@H](O)[C@H](O)[C@H]3O)[C@H](O)[C@H]2O)c1")
3.17
>>> test_result("CC(=O)N(c1cccc(-c2nnn[nH]2)c1)[C@@H]1O[C@H](CO)[C@@H](O[C@@H]2O[C@H](CO)[C@H](O)[C@H](O)[C@H]2O)[C@H](O)[C@H]1O")
2.89
>>> test_result("CC(=O)N(c1cccc(CO)c1)[C@@H]1O[C@H](CO)[C@@H](O[C@@H]2O[C@H](CO)[C@H](O)[C@H](O)[C@H]2O)[C@H](O)[C@H]1O")
3.08
>>> test_result("CCOC(=O)c1ccccc1N(C(C)=O)[C@@H]1O[C@H](CO)[C@@H](O[C@@H]2O[C@H](CO)[C@H](O)[C@H](O)[C@H]2O)[C@H](O)[C@H]1O")
3.11
>>> test_result("CC(=O)N(c1cccc(-c2cn(C)nn2)c1)[C@@H]1O[C@H](CO)[C@@H](O[C@@H]2O[C@H](CO)[C@H](O)[C@H](O)[C@H]2O)[C@H](O)[C@H]1O")
3.05
>>> test_result("CC(=O)N(c1cc(Br)cc(C(=O)O)c1)[C@@H]1O[C@H](CO)[C@@H](O[C@@H]2O[C@H](CO)[C@H](O)[C@H](O)[C@H]2O)[C@H](O)[C@H]1O")
3.01
